Target: beta-catenin/TCF4 engagement (Homo sapiens, UniProt P35222)
Construct: expressed in transfected cells; host or cells: HEK293
Sequence (P35222 1-781): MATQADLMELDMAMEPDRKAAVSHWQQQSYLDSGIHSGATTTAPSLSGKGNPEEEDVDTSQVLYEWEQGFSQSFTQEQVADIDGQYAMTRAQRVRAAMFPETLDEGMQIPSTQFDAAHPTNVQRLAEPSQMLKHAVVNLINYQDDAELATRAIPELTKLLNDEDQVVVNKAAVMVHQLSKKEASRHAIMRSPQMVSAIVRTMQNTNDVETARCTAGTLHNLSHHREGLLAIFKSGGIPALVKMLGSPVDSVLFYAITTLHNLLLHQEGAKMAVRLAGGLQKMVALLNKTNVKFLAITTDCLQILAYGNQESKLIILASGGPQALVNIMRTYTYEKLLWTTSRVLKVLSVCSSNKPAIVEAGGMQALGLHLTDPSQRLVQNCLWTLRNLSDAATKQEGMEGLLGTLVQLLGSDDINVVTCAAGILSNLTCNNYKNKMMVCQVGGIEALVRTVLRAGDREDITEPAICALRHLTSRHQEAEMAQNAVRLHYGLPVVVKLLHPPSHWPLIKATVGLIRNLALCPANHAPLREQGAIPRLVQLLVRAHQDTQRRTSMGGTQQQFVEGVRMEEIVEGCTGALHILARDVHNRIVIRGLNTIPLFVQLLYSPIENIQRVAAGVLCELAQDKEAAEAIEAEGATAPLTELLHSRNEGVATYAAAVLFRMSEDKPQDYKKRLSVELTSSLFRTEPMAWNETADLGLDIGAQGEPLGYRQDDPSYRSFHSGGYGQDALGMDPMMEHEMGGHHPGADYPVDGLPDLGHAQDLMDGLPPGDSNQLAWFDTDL
Assay: Nano-BRET target engagement assay (B-cat-Halo & TCF4-Luc in HEK293 cells)
Format: cell-based
Settings: absolute IC50; read-out: NanoBRET Abs IC50
ENDPOINT LABEL: pIC50
Scale explanation: pIC50 corresponds to minus log10 of a concentration expressed in moles per litre.

Examples from the recorded data:
MOLECULE	pIC50
CC(=O)N1CCC[C@]12CC=CCCCC1(CCCC=CCCCCCC[C@@](C)(C(=O)N[C@@H](Cc3ccccc3)C(=O)N[C@@H](Cc3csc4ccccc34)C(=O)N[C@@H](CCC(N)=O)C(N)=O)NC(=O)[C@H](CC(C)C)NC(=O)[C@H](Cc3ccccc3)NC(=O)[C@H](C)NC(=O)[C@H](C)NC(=O)[C@H](CCC(=O)O)NC(=O)[C@H](CC(=O)O)NC1=O)NC(=O)[C@H](CO)NC(=O)[C@H](CC(=O)O)NC2=O (stereo partly drawn) [I-1528]	4.50
CC(=O)N1CCC[C@]12CC=CCCCC1(CCCC=CCCCOC(=O)N3CC[C@@](C(=O)N[C@@H](Cc4ccccc4C(F)(F)F)C(=O)N[C@@H](Cc4ccc(Cl)c(Cl)c4)C(=O)N[C@@H](CO)C(N)=O)(C3)NC(=O)[C@H](CC(C)C)NC(=O)[C@H](Cc3ccccc3)NC(=O)[C@H](C)NC(=O)[C@H](C)NC(=O)[C@H](Cc3cccc(C(=O)O)c3)NC(=O)[C@H](CC(=O)O)NC1=O)NC(=O)[C@H](CC(C)(C)C)NC(=O)[C@H](CC(=O)O)NC2=O (stereo partly drawn) [I-2218]	5.29
CC(=O)N(CC[C@@H]1NC(=O)[C@H](CC(=O)O)NC(=O)C2(CCCC=CCCCOC(=O)N3CC[C@@](C(=O)N[C@@H](Cc4ccsc4)C(=O)N[C@@H](Cc4csc5ccccc45)C(=O)N[C@@H](CCC(N)=O)C(N)=O)(C3)NC(=O)[C@H](CC(C)C)NC(=O)[C@H](Cc3ccccc3)NC(=O)[C@H](C)NC(=O)[C@H](C)NC1=O)CCCC=CC[C@]1(CCCN1C(C)=O)C(=O)N[C@@H](CC(=O)O)C(=O)N[C@@H](CC(C)(C)C)C(=O)N2)CC(=O)O (stereo partly drawn) [I-1840]	4.65
CC(=O)N1CCC[C@]12CC=CCCCC1(CCCC=CCCCCCC[C@@](C)(C(=O)N[C@@H](Cc3ccccc3Cl)C(=O)N[C@@H](Cc3csc4ccccc34)C(=O)N[C@@H](CCC(N)=O)C(N)=O)NC(=O)[C@H]([C@@H](C)O)NC(=O)[C@H](Cc3ccccc3)NC(=O)[C@H](C)NC(=O)[C@H](C)NC(=O)[C@H](CC(=O)O)NC(=O)[C@H](CC(=O)O)NC1=O)NC(=O)[C@H](CC(C)(C)C)NC(=O)[C@H](CC(=O)O)NC2=O (stereo partly drawn) [I-1087]	5.03
CC(=O)N1CCC[C@]12CC=CCCCC1(CCCC=CCCCOC(=O)N3CC[C@@](C(=O)N[C@@H](Cc4ccccc4Cl)C(=O)N[C@@H](Cc4csc5ccccc45)C(=O)N[C@@H](CCC(N)=O)C(N)=O)(C3)NC(=O)[C@H](CC(N)=O)NC(=O)[C@H](Cc3ccccc3)NC(=O)[C@H](C)NC(=O)[C@H](CC(C)C)NC(=O)[C@H](CN(CC(=O)O)CC(F)(F)F)NC(=O)[C@H](CC(=O)O)NC1=O)NC(=O)[C@H](CC(C)(C)C)NC(=O)[C@H](CC(=O)O)NC2=O (stereo partly drawn) [I-1007]	4.60

Look up pIC50 of CC(=O)N1CCC[C@]12CC=CCCCC1(CCCC=CCCCCCC[C@@](C)(C(=O)N[C@@H](Cc3ccsc3)C(=O)N[C@@H](Cc3csc4ccccc34)C(=O)N[C@@H](CCC(N)=O)C(N)=O)NC(=O)[C@H](CC(N)=O)NC(=O)[C@H](Cc3ccccc3)NC(=O)[C@H](C)NC(=O)[C@H](C)NC(=O)[C@H](CN(CC(=O)O)Cc3ccccc3)NC(=O)[C@H](CC(=O)O)NC1=O)NC(=O)[C@H](CC(C)(C)C)NC(=O)[C@H](CC(=O)O)NC2=O (stereo partly drawn) [I-1456] and report it. 4.63

Look up pIC50 of CC(=O)N1CCC[C@]12CC=CCCCC1(CCCC=CCCCOC(=O)N3CC[C@@](C(=O)N[C@@H](Cc4ccsc4)C(=O)N[C@@H](Cc4csc5ccccc45)C(=O)N[C@@H](CCC(N)=O)C(N)=O)(C3)NC(=O)[C@H](CC(C)C)NC(=O)[C@H](Cc3ccccc3)NC(=O)[C@H](C)NC(=O)[C@H](C)NC(=O)[C@H](Cc3ccccc3C(=O)O)NC(=O)[C@H](CC(=O)O)NC1=O)NC(=O)[C@H](CC(C)(C)C)NC(=O)[C@H](CC(=O)O)NC2=O (stereo partly drawn) [I-854] and report it. 5.44

Source of measurements: patent US20240116985A1
